TARGET OF ASSAY: B-Raf kinase (SEQ. ID NO: 2) (Homo sapiens (Human))
Sequence (P15056 416-766): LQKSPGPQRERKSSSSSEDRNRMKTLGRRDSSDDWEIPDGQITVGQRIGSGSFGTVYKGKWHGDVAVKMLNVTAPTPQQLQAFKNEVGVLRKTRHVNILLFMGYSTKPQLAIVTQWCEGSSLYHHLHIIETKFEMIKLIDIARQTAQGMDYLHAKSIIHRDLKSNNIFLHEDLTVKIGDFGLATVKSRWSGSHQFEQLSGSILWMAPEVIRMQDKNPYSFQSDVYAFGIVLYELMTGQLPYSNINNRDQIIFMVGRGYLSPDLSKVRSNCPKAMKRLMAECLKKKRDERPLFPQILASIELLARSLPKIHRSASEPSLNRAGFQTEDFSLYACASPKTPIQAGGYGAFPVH
EXPERIMENTAL DETAILS: Biochemical Assay for B-Raf (1)
CONDITION SUMMARY: Table J, assay version (1); read-out: BRAF (1) IC50
pIC50: −log10 of the molar value.
REPORTED PROPERTY: pIC50

Prompt line: Name the recorded pIC50 for CC(=O)Nc1cc(-c2cc(-c3cc(NC(=O)c4cccc(C)c4)ccc3C)ccn2)ccn1 [Example 32] .
Response line: ≥ 7.00

Prompt line: Record: COC(C)(C)c1cc(C(=O)Nc2ccc(C)c(-c3nccc(-c4ccnc(NC(=O)C5CC5)c4)n3)c2)ccn1 [Example 239]
Response line: ≥ 7.00

Prompt line: Record: COC(C)(C)c1cc(C(=O)Nc2ccc(C)c(-c3cc(-c4ccnc(NC(=O)C5CC5)c4)cnn3)c2)ccn1 [Example 319]
Response line: ≥ 7.00

Prompt line: Record: CC(=O)Nc1cc(-c2cc(-c3cc(NC(=O)c4ccnc(C(F)(F)F)c4)ccc3C)nc(C)n2)ccn1 [Example 83]
Response line: ≥ 7.00

Prompt line: Record: CC(=O)Nc1cc(-c2cc(-c3cc(NC(=O)c4ccnc(C(F)(F)F)c4)ccc3C)cn(C)c2=O)ccn1 [Example 21]
Response line: ≥ 7.00

Prompt line: Record: CNC(=O)c1cc(-c2nccc(-c3cc(NC(=O)c4ccnc(C(C)(C)C#N)c4)c(F)cc3C)n2)ccn1 [Example 166]
Response line: 6.30 to 7.00

Data origin: patent US12319655B2
